The reported numbers originate from patent US20230066315A1.

Subject of test: human recombinant adenosine A2A receptor (Homo sapiens, UniProt P29274)
Sequence (P29274 whole entry): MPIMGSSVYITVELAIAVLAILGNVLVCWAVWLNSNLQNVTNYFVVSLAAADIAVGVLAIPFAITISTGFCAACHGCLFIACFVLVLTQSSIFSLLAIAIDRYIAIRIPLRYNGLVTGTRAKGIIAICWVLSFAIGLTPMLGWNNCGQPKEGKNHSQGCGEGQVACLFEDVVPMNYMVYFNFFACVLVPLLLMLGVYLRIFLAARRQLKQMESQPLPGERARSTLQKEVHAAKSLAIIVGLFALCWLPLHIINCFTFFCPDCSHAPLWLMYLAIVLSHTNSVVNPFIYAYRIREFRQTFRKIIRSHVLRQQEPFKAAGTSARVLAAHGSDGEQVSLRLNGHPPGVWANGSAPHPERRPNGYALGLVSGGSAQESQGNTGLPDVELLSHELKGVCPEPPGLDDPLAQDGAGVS
Measurement description: cAMP assay (Assay 2) in HEK-293 cells expressing A2A receptor
Assay context: HEK-293 cells expressing human recombinant adenosine A2A receptor; reducing A2A cAMP levels
Endpoint label: pIC50
A value of pIC50 is the negative decimal logarithm of a concentration given in moles per litre.

Recorded pIC50 (molecule O=c1cc[nH]c2nc(-c3ccccc3)c(-c3ccc4ncccc4c3)nc12 ): 6.49
